Test: Fluocinolone acetonide concentration in dog synovial fluid after intraarticular implants in knee joints
Assay type: in vivo, Canis familiaris
Conditions: dog, synovial fluid (left knee joint), other: bilateral intraarticular implants (knee joints), 18 mg, Left leg (18 mg implants), Dog 1002, Day 29; read-out: Assayed Concentrations of Fluocinolone Acetonide in Dog Synovial Fluid Samples (Left Leg)
Endpoint Label: concentration at 29 day (ng/mL)
Give the value, in units of ng/mL, as a plain number.

The compound identified as CC1(C)O[C@@H]2C[C@H]3[C@@H]4C[C@H](F)C5=CC(=O)C=C[C@]5(C)[C@@]4(F)[C@@H](O)C[C@]3(C)[C@]2(C(=O)CO)O1 [Fluocinolone Acetonide] registered its concentration at 29 day at 379

// data source = patent US6936270B2
